Taken from ChEMBL document CHEMBL3734713.

// MBC lookup, one value per entry
- Test system: Escherichia coli
- method: Antibacterial activity against Escherichia coli ATCC 35210 assessed as growth inhibition after 24 hrs at 37 degC by iodonitrotetrazolium chloride staining based microdilution broth assay
- Format: functional
- cond: ATCC 35210, 24 h
Write the value in µM as a bare number.

Some solved entries appear below for comparison.
>>> assay_value("O=C1CSC(c2ccc(Cl)cc2)N1c1nc(C23CC4CC(CC(C4)C2)C3)cs1 (stereo not drawn)")
125
>>> assay_value("O=C1CSC(c2ccc(Br)cc2)N1c1nc(C23CC4CC(CC(C4)C2)C3)cs1 (stereo not drawn)")
210
>>> assay_value("CC1(C)S[C@@H]2[C@H](NC(=O)[C@H](N)c3ccccc3)C(=O)N2[C@H]1C(=O)O")
492
>>> assay_value("CN[C@@H]1[C@H](O[C@H]2[C@H](O[C@H]3[C@H](O)[C@@H](O)[C@H](N=C(N)N)[C@@H](O)[C@@H]3N=C(N)N)O[C@@H](C)[C@]2(O)C=O)O[C@@H](CO)[C@H](O)[C@H]1O")
344
>>> assay_value("O=C1CSC(c2cccc(Cl)c2)N1c1nc(C23CC4CC(CC(C4)C2)C3)cs1 (stereo not drawn)")
125

Query block: Form: Entry = O=C1CSC(c2cccc(F)c2)N1c1nc(C23CC4CC(CC(C4)C2)C3)cs1 (stereo not drawn) | System = Escherichia coli | MBC = ____
Result block: 125

Query block: Form: Entry = O=C1CSC(c2ccc([N+](=O)[O-])cc2)N1c1nc(C23CC4CC(CC(C4)C2)C3)cs1 (stereo not drawn) | System = Escherichia coli | MBC = ____
Result block: 125

Query block: Form: Entry = O=C1CSC(c2ccccc2Cl)N1c1nc(C23CC4CC(CC(C4)C2)C3)cs1 (stereo not drawn) | System = Escherichia coli | MBC = ____
Result block: 125

====

- Test system: Aspergillus versicolor
- method: Antifungal activity against Aspergillus versicolor ATCC 11730 assessed as growth inhibition after 72 hrs at 28 degC by serial dilution method
- Format: functional
// MFC99.5 lookup, one value per entry
Write the value in ×10⁻² umol/ml as a bare number.

>>> assay_value("c1ccc(-c2ccc(C(c3ccccc3)n3ccnc3)cc2)cc1 (stereo not drawn)")
64
>>> assay_value("O=C1CSC(c2c(Cl)cccc2Cl)N1c1nc(C23CC4CC(CC(C4)C2)C3)cs1 (stereo not drawn)")
32.22

Now for another entry.
Query block: Which MFC99.5 is reported for this compound? COc1ccc(OC)c(C2SCC(=O)N2c2nc(C34CC5CC(CC(C5)C3)C4)cs2)c1 (stereo not drawn)
Result block: 32.85

====

// MBC lookup, one value per entry
- Test system: Bacillus cereus
- method: Antibacterial activity against clinical isolates of Bacillus cereus assessed as growth inhibition after 24 hrs at 37 degC by iodonitrotetrazolium chloride staining based microdilution broth assay
- Assay type: functional
Write the value in µM as a bare number.

>>> assay_value("CN[C@@H]1[C@H](O[C@H]2[C@H](O[C@H]3[C@H](O)[C@@H](O)[C@H](N=C(N)N)[C@@H](O)[C@@H]3N=C(N)N)O[C@@H](C)[C@]2(O)C=O)O[C@@H](CO)[C@H](O)[C@H]1O")
86
>>> assay_value("CC1(C)S[C@@H]2[C@H](NC(=O)[C@H](N)c3ccccc3)C(=O)N2[C@H]1C(=O)O")
372

Now for another entry.
Query block: Form: Entry = COc1ccc(C2SCC(=O)N2c2nc(C34CC5CC(CC(C5)C3)C4)cs2)cc1 (stereo not drawn) | System = Bacillus cereus | MBC = ____
Result block: 30.6
